system: MCF7 breast cancer cell line; assay: Cell metabolic activity / viability (MTT assay) on MCF7; type: cell-based, human; conditions: MCF7, 100 µM, 72 h;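 note: MTT optical density read-out in human MCF7 cells, normalised to DMSO vehicle-treated cells as 100%, with IC50 derived from fitted concentration–response curves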
Examples of compounds with documented Viability (% of control) - 72 h follow.

Field: example entries. Status: answers known.
Fill in: Viability (% of control) - 72 h of O=[N+]([O-])c1cccc(S(=O)(=O)Oc2ccc(/C=C/c3ccccc3)cc2)c1 is ___
77.31 ± 7.02 % of control

Fill in: Viability (% of control) - 72 h of Oc1ccc(/C=C/c2cc(O)cc(O)c2)cc1 [RSV, trans-3,4′,5-trihydroxystilbene, reference compound] is ___
47.75 ± 2.67 % of control

Fill in: Viability (% of control) - 72 h of Cc1ccc(S(=O)(=O)Oc2ccc(/C=C/c3ccccc3)cc2)cc1[N+](=O)[O-] is ___
35.22 ± 2.21 % of control

---
Fill in: Viability (% of control) - 72 h of O=S(=O)(Cc1ccccc1)Oc1ccc(/C=C/c2ccccc2)cc1 is ___
72.67 ± 3.46 % of control
